What IC50 was measured for each of the following?
Tested on: A-375 (melanoma)
Assay: MTS cell viability assay, A-375
Format: cell-based
Settings: cells incubated 72 h
Description: Cells were plated, the evening before treatment, for each treatment on 96-well plates (1×10^4 cells/well) in 100 μL volume per well. […] Cells were treated by aspirating plating media from each well and adding 80 μL of betulinic acid (control) or each analog solution in serial dilutions to the adherent cells. […] Absorbances at 490 nm were measured on a Wallac Victor II plate reader at multiple time points following the addition of MTS reagent for each plate. […]
One number for each entry, in µM.

Some molecules with recorded IC50:
1. C=C(CO)[C@@H]1CC[C@]2(CO)CC[C@]3(C)[C@H](CC[C@@H]4[C@@]5(C)CCC(NCCc6ccc(O)cc6)C(C)(C)[C@@H]5CC[C@]43C)[C@@H]12 (stereo partly shown) [Compound 24ag] : 17
2. C=C(CNCCO)[C@@H]1CC[C@]2(CO)CC[C@]3(C)[C@H](CC[C@@H]4[C@@]5(C)CCC(NCCOC)C(C)(C)[C@@H]5CC[C@]43C)[C@@H]12 (stereo partly shown) [Compound 24bc] : 4
3. C=C(CO)[C@@H]1CC[C@]2(CO)CC[C@]3(C)[C@H](CC[C@@H]4[C@@]5(C)CCC(NCCNC(=O)OC(C)(C)C)C(C)(C)[C@@H]5CC[C@]43C)[C@@H]12 (stereo partly shown) [Compound 24am] : 17
4. C=C(CNCCO)[C@@H]1CC[C@]2(CO)CC[C@]3(C)[C@H](CC[C@@H]4[C@@]5(C)CCC(NC6CCC(O)CC6)C(C)(C)[C@@H]5CC[C@]43C)[C@@H]12 (stereo partly shown) [Compound 24bj] : 7

Let us examine a further case.
**Query** // query IC50 value for entry C=C(CNCCO)[C@@H]1CC[C@]2(CO)CC[C@]3(C)[C@H](CC[C@@H]4[C@@]5(C)CCC(NCCc6ccc(O)cc6)C(C)(C)[C@@H]5CC[C@]43C)[C@@H]12 (stereo partly shown) [Compound 24bf]
**Result** 2

* * *

tested on: CEM; test: MTS cell viability assay, CEM; format: cell-based; conditions: Homo sapiens, CCRF-CEM, cells incubated 72 h
measure_name: IC50 (µM)
Answers are plain numbers, in µM.

Some compounds with recorded IC50:
1. C=C(CO)[C@@H]1CC[C@]2(CO)CC[C@]3(C)[C@H](CC[C@@H]4[C@@]5(C)C=CC(=O)C(C)(C)[C@@H]5CC[C@]43C)[C@@H]12 : 16
2. C=C(C=O)[C@@H]1CC[C@]2(CO)CC[C@]3(C)[C@H](CC[C@@H]4[C@@]5(C)C=CC(=O)C(C)(C)[C@@H]5CC[C@]43C)[C@@H]12 : 2
3. C=C(C=O)[C@@H]1CC[C@]2(COC3CCCCO3)CC[C@]3(C)[C@H](CC[C@@H]4[C@@]5(C)C=CC(=O)C(C)(C)[C@@H]5CC[C@]43C)[C@@H]12 (stereo partly shown) : 1

Let us examine a further case.
**Query** // query IC50 value for entry `C=C(CO)[C@@H]1CC[C@]2(CO)CC[C@]3(C)[C@H](CC[C@@H]4[C@@]5(C)CCC(=O)C(C)(C)[C@@H]5CC[C@]43C)[C@@H]12`
**Result** 45

* * *

tested on: OVCAR-3 (ovarian carcinoma); assay: MTS cell viability assay, OVCAR-3; format: cell-based; conditions: 120 h for the OVCAR cell lines
What IC50 was measured for each of the following?
Numbers only, in µM.

Some molecules with recorded IC50:
1) C=C(CO)[C@@H]1CC[C@]2(CO)CC[C@]3(C)[C@H](CC[C@@H]4[C@@]5(C)CCC(NCCNC(=O)OC(C)(C)C)C(C)(C)[C@@H]5CC[C@]43C)[C@@H]12 (stereo partly shown) [Compound 24am] : 2.5
2) C=C(CO)[C@@H]1CC[C@]2(CO)CC[C@]3(C)[C@H](CC[C@@H]4[C@@]5(C)CCC(NCCOC)C(C)(C)[C@@H]5CC[C@]43C)[C@@H]12 (stereo partly shown) [Compound 24af] : 40
3) C=C(CO)[C@@H]1CC[C@]2(CO)CC[C@]3(C)[C@H](CC[C@@H]4[C@@]5(C)CCC(NCCc6ccc(O)cc6)C(C)(C)[C@@H]5CC[C@]43C)[C@@H]12 (stereo partly shown) [Compound 24ag] : 5

Let us examine a further case.
**Query** // query IC50 value for entry C=C(C)[C@@H]1CC[C@]2(C(=O)O)CC[C@]3(C)[C@H](CC[C@@H]4[C@@]5(C)CC[C@H](O)C(C)(C)[C@@H]5CC[C@]43C)[C@@H]12 [Compound 1, reference compound]
**Result** 40

* * *

What IC50 was measured for each of the following?
System: SK-MEL-2 (melanoma)
Assay: MTS cell viability assay, SK-MEL-2
Format: cell-based
Conditions: Homo sapiens, SK-MEL-2, cells incubated 72 h
Procedure: Cells were plated, the evening before treatment, for each treatment on 96-well plates (1×10^4 cells/well) in 100 μL volume per well. […] Cells were treated by aspirating plating media from each well and adding 80 μL of betulinic acid (control) or each analog solution in serial dilutions to the adherent cells. […] Absorbances at 490 nm were measured on a Wallac Victor II plate reader at multiple time points following the addition of MTS reagent for each plate. […]
One number for each entry, in µM.

1) C=C(CNCCc1ccc(O)cc1)[C@@H]1CC[C@]2(COC3CCCCO3)CC[C@]3(C)[C@H](CC[C@@H]4[C@@]5(C)CCC(N)C(C)(C)[C@@H]5CC[C@]43C)[C@@H]12 (some centres unmarked) [Compound 24bn] : 5
2) C=C(C=O)[C@@H]1CC[C@]2(COC(C)=O)CC[C@]3(C)[C@H](CC[C@@H]4[C@@]5(C)CCC(=O)C(C)(C)[C@@H]5CC[C@]43C)[C@@H]12 [Compound 14a] : 12
3) C=C(COC(C)=O)[C@@H]1CC[C@]2(CO)CC[C@]3(C)[C@H](CC[C@@H]4[C@@]5(C)CCC(=O)C(C)(C)[C@@H]5CC[C@]43C)[C@@H]12 : 43

Let us examine a further case.
**Query** // query IC50 value for entry C=C(CNCCO)[C@@H]1CC[C@]2(COC3CCCCO3)CC[C@]3(C)[C@H](CC[C@@H]4[C@@]5(C)CCC(O)C(C)(C)[C@@H]5CC[C@]43C)[C@@H]12 (some centres unmarked) [Compound 23a]
**Result** 16

* * *

What IC50 was measured for each of the following?
test system: SK-MEL-2 (melanoma); test: MTS cell viability assay, SK-MEL-2; assay type: cell-based; details: Homo sapiens, SK-MEL-2, cells incubated 72 h
Give bare numbers, in µM.

Some molecules with recorded IC50:
1. C=C(C=O)[C@@H]1CC[C@]2(CO)CC[C@]3(C)[C@H](CC[C@@H]4[C@@]5(C)C=CC(=O)C(C)(C)[C@@H]5CC[C@]43C)[C@@H]12 : 14
2. C=C(CNCCc1ccc(O)cc1)[C@@H]1CC[C@]2(COC3CCCCO3)CC[C@]3(C)[C@H](CC[C@@H]4[C@@]5(C)CCC(=O)C(C)(C)[C@@H]5CC[C@]43C)[C@@H]12 (some centres unmarked) [Compound 22c] : 7

Let us examine a further case.
**Query** // query IC50 value for entry C=C(CO)[C@@H]1CC[C@]2(COC3CCCCO3)CC[C@]3(C)[C@H](CC[C@@H]4[C@@]5(C)CCC(NCCO)C(C)(C)[C@@H]5CC[C@]43C)[C@@H]12 (some centres unmarked) [Compound 24ac]
**Result** 15

* * *

test system: SK-MEL-2 (melanoma); test: MTS cell viability assay, SK-MEL-2; type: cell-based; conditions: Homo sapiens, SK-MEL-2, cells incubated 72 h
What IC50 was measured for each of the following?
Give bare numbers, in µM.

1. C=C(C=O)[C@@H]1CC[C@]2(COC3CCCCO3)CC[C@]3(C)[C@H](CC[C@@H]4[C@@]5(C)C=CC(=O)C(C)(C)[C@@H]5CC[C@]43C)[C@@H]12 (some centres unmarked) [Compound 34] : 2

# map each compound to its IC50
1. C=C(CO)[C@@H]1CC[C@]2(CO)CC[C@]3(C)[C@H](CC[C@@H]4[C@@]5(C)CCC(N)C(C)(C)[C@@H]5CC[C@]43C)[C@@H]12 (some centres unmarked) [Compound 24ab]
2. C=C(C(OC)OC)[C@@H]1CC[C@]2(CO)CC[C@]3(C)[C@H](CC[C@@H]4[C@@]5(C)CCC(=O)C(C)(C)[C@@H]5CC[C@]43C)[C@@H]12 [Compound 10]

**Result**
[34, 17]

* * *

tested on: SK-MEL-2 (melanoma); test: MTS cell viability assay, SK-MEL-2; format: cell-based; conditions: Homo sapiens, SK-MEL-2, cells incubated 72 h
measure_name: IC50

Some compounds with recorded IC50:
1) C=C(C(=O)O)[C@@H]1CC[C@]2(CO)CC[C@]3(C)[C@H](CC[C@@H]4[C@@]5(C)CCC(=O)C(C)(C)[C@@H]5CC[C@]43C)[C@@H]12 [Compound 13b] : > 75 µM
2) C=C(CO)[C@@H]1CC[C@]2(CO)CC[C@]3(C)[C@H](CC[C@@H]4[C@@]5(C)CCC(=O)C(C)(C)[C@@H]5CC[C@]43C)[C@@H]12 [Compound 7a] : > 75 µM
3) C=C(CO)[C@@H]1CC[C@]2(CO)CC[C@]3(C)[C@H](CC[C@@H]4[C@@]5(C)C=CC(=O)C(C)(C)[C@@H]5CC[C@]43C)[C@@H]12 [Compound 30] : > 75 µM

# map each compound to its IC50
1. C=C(C(=O)O)[C@@H]1CC[C@]2(CO)CC[C@]3(C)[C@H](CC[C@@H]4[C@@]5(C)CC[C@H](O)C(C)(C)[C@@H]5CC[C@]43C)[C@@H]12 [Compound 15]
2. C=C(COC(C)=O)[C@@H]1CC[C@]2(C(=O)O)CC[C@]3(C)[C@H](CC[C@@H]4[C@@]5(C)CC[C@H](O)C(C)(C)[C@@H]5CC[C@]43C)[C@@H]12 [Compound 19a]

**Result**
1. > 75 µM
2. > 45 µM
